Tested on: MS2 coat protein
assayRemarks: apparent Kd, MS2 coat protein; higher = weaker binding; RNA-MaP array
conditionDescription: ligand present: flavin mononucleotide; designed as: ON switch for flavin mononucleotide
We use 0.02 µM as the dividing line for apparent Kd: on or above the line is Yes, below is No.

{"orderedResidues": "AGUUUGGGCGCAGGAUAUCUUCACAUGAGGAUCACCCAUGUCCAUAAGAUAUUUAUGUCAUUUGGAGAGAAGGGCGGUUGUAAU", "classification": "Yes"}
{"orderedResidues": "CUCCCACAUGAGGAUCACCCAUGUAUGAAAAUACAAGGAUAUGGCGUCCUGAUUAGCGGCCCAGAAGGUGUGCUUU", "classification": "Yes"}
{"orderedResidues": "AGAAAGAAUCAGAAGGCAGAGAUGUCUAUCUACUGAGGAUAUGAAUGACAUGAGGAUCACCCAUGUUGUCAGGCCAGGCCCAAC", "classification": "No"}
{"orderedResidues": "AAGAACCAGAUAGGAUAUCCGUUUAAAUCACAAGGAGAAGGAUCAAAUACAAAACAUGAGGAUCACCCAUGUGGAAGAUAGCUA", "classification": "No"}
{"orderedResidues": "GCAGGACAUGAGGAUCACCCAUGUGAGGGCAGAGGAGGAUAUAACUACCACUAUUGAUCGUUAGAAGGCCUAGAGG", "classification": "Yes"}
{"orderedResidues": "AUAAAUUUUACACGUUGCUACAUGAGGAUCACCCAUGUGUGGAGAAGGGAUCUGCCUACAAGGAAUCAGGAUAUCCAACUGUUC", "classification": "Yes"}
